# Test system: MLKL phosphorylation in HT29-L23 human colorectal adenocarcinoma cells
# ASSAY_METHOD_TEXT: MLKL Phosphorylation High-Content Assay
# Format: cell-based
# SETUP_CONDITIONS: Homo sapiens, necroptosis induced with TNFα, SMAC mimetic and Z-VAD, 6 h, read-out: pMLKL (IC50)
MEASUREMENT_LABEL: IC50 (µM)
Could you give me the number in µM? Just the number is fine.

Provide one value: measured IC50 of `CC(C)NC(=O)c1n[nH]c2cc(-c3csc(C(=O)NCC[C@@H](O)c4ccc(Cl)cc4)c3)ccc12`
1.1

Please indicate IC50 recorded for CNC(=O)c1n[nH]c2cc(-c3nc(C(=O)NCCC(C)c4ccccc4)cs3)ccc12 (centres unmarked)
0.81

For the compound `CNC(=O)c1n[nH]c2cc(-c3nc(C(=O)NCc4cc(C(F)(F)F)ccc4F)c(C)n3C)ccc12` , report IC50.
0.89

Report IC50 for `CNC(=O)c1n[nH]c2cc(-c3nc(C)c(C(=O)NCc4cc(C(F)(F)F)ccc4F)n3C)ccc12`
0.15

Quick one: give measured IC50 for `CNC(=O)c1n[nH]c2cc(-c3nc(C(=O)NCC[C@@H](O)c4ccc(Cl)cc4)cs3)ccc12`
1.2

State its IC50 for this compound: CNC(=O)c1n[nH]c2cc(-c3ncc(C(=O)NCCC(C)c4ccccc4)s3)ccc12 (centres unmarked)
0.7

Dear colleague, please send me the reported IC50 for `CNC(=O)c1n[nH]c2cc(-c3nc(C(=O)NCc4cc(OC(F)(F)F)ccc4F)cs3)ccc12` when you can.
0.81

Supply measured IC50 of `CNC(=O)c1n[nH]c2cc(-c3nc(C(=O)NCc4cc(OC(F)(F)F)ccc4F)c(C)n3C)ccc12` in your reply.
0.6

Quote IC50 reported for `CNC(=O)c1n[nH]c2cc(-c3cc(C)c(C(=O)NCc4cc(OC(F)(F)F)ccc4F)s3)ccc12` please.
0.001

Respond only with IC50 recorded for `CNC(=O)c1n[nH]c2cc(-c3nc(C)c(C(=O)NCC[C@@H](O)c4ccc(Cl)cc4)s3)ccc12`
0.21

Could you please provide reported IC50 for CNC(=O)c1n[nH]c2cc(-c3cc(C(=O)NC(C)CCc4ccccc4)n(C)n3)ccc12 (racemic) ? Thanks!
0.6
